test system: Mus musculus; assay: Analgesic activity in albino mouse assessed as effect on […] at 10 mg/kg, ip after 2 hrs by hot plate test; type: functional; conditions: route intraperitoneal

compound: CC(=O)Oc1ccccc1C(=O)O
experimental_target: Mus musculus
Activity / %: 50.5
--
compound: NC(=O)C1=C(N)C2=C(c3ccccc3)C(c3ccccc3)=NNC2[Se]1 (stereo not given)
experimental_target: Mus musculus
Activity / %: 99.4
--
compound: CCOC(=O)C1=C(N)C2=C(c3ccccc3)C(c3ccccc3)=NNC2[Se]1 (stereo not given)
experimental_target: Mus musculus
Activity / %: 39.8
--
compound: N#CC1=C(N)C2=C(c3ccccc3)C(c3ccccc3)=NNC2[Se]1 (stereo not given)
experimental_target: Mus musculus
Activity / %: 75.5
--
compound: NC1=C(C(=O)c2ccccc2)[Se]C2NN=C(c3ccccc3)C(c3ccccc3)=C12 (stereo not given)
experimental_target: Mus musculus
Activity / %: 30.6

---

test system: Rattus norvegicus; experiment: Antiinflammatory activity in albino rat assessed as inhibition of carrageenan-induced paw edema at 10 mg/kg, ip after 0.5 hrs; assay type: functional; conditions: route intraperitoneal

molecule: CCOC(=O)C1=C(N)C2=C(c3ccccc3)C(c3ccccc3)=NNC2[Se]1 (stereo not drawn)
inhibition in vivo at 10 mg/kg (%): 8.8
//
molecule: O=C1NC2(CCCCC2)NC2=C1[Se]C1NN=C(c3ccccc3)C(c3ccccc3)=C21 (stereo not drawn)
inhibition in vivo at 10 mg/kg (%): 8.7
//
molecule: NC1=C(C(=O)c2ccccc2)[Se]C2NN=C(c3ccccc3)C(c3ccccc3)=C12 (stereo not drawn)
inhibition in vivo at 10 mg/kg (%): 9
//
molecule: NC(=O)C1=C(N)C2=C(c3ccccc3)C(c3ccccc3)=NNC2[Se]1 (stereo not drawn)
inhibition in vivo at 10 mg/kg (%): 8.7
//
molecule: COc1ccc2c(c1)c(CC(=O)O)c(C)n2C(=O)c1ccc(Cl)cc1
inhibition in vivo at 10 mg/kg (%): 11.7
//
molecule: CC(=O)C1=C(N)C2=C(c3ccccc3)C(c3ccccc3)=NNC2[Se]1 (stereo not drawn)
inhibition in vivo at 10 mg/kg (%): 8.8
//
molecule: N#Cc1c(-c2ccccc2)c(-c2ccccc2)n[nH]c1=[Se]
inhibition in vivo at 10 mg/kg (%): 8.8
//
molecule: N#CC1=C(N)C2=C(c3ccccc3)C(c3ccccc3)=NNC2[Se]1 (stereo not drawn)
inhibition in vivo at 10 mg/kg (%): 8.8

---

tested on: Rattus norvegicus; experiment: Antiinflammatory activity in albino rat assessed as inhibition of carrageenan-induced paw edema at 10 mg/kg, ip after 1 hrs; format: functional; conditions: route intraperitoneal
Recorded inhibition in vivo at 10 mg/kg values for a group of molecules are listed next.

molecule: CCOC(=O)C1=C(N)C2=C(c3ccccc3)C(c3ccccc3)=NNC2[Se]1 (stereo not drawn)
inhibition in vivo at 10 mg/kg: 17.2%

molecule: COc1ccc2c(c1)c(CC(=O)O)c(C)n2C(=O)c1ccc(Cl)cc1
inhibition in vivo at 10 mg/kg: 20.5%

molecule: N#CC1=C(N)C2=C(c3ccccc3)C(c3ccccc3)=NNC2[Se]1 (stereo not drawn)
inhibition in vivo at 10 mg/kg: 9.9%
